# study.target: T1, PUF4 RNA-binding domain (Saccharomyces cerevisiae, UniProt P25339 537-888)
# T1 sequence: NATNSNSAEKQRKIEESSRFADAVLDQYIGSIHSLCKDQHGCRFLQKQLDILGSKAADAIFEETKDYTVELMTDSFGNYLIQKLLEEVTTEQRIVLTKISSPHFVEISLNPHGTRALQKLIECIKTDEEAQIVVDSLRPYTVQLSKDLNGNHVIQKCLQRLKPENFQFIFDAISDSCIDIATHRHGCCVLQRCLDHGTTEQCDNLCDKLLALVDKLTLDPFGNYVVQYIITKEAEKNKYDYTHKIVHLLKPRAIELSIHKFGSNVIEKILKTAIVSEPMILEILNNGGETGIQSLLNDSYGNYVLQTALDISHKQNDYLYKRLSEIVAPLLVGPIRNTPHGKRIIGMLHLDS
# experiment.notes: Mg; RNA-MaP; 20 mM Na-HEPES pH 7.4, 30 mM KOAc, 0.75 mM MgCl2, 0.1% Tween-20, 5% glycerol, 0.1 mg/mL BSA, 2 mM DTT; 25 C; 0.0125-409.6 nM protein
# condition.context: tags: N-His6-TEV cleaved; C-SNAP kept, Cy3B-labelled; label: tethered on chip by stalled RNA polymerase
test.readout: Kd (nM)
Numeric only. Scale: nM

[Q] // returns reported Kd for input Ic_S2_P5E.1_K5.1_C5.1_H5.1_A5.1_[T5C]_[T6A]_F5.1_[T8A]_[T9A]_[A10T]_T5.1 (ssRNA) RNA: UUUGAUUAAUAUGAUAUCGUUCUUUCUUGUACAAAAUUUCUUUCUCGAUAUCAUAUUAAUCUUU
[A] 8.8

[Q] // returns reported Kd for input Id_ii_S2_P4E.3_K4.2_C4.2_[C-2A]_[T-1C]_H4.2_A4.1_F4.1_T4.2_[G10T] (ssRNA) RNA: UUUGAUUAAUAUGAUAUCGUUCUUUCUACUAUAUAUUAUUUUCUUUCUCGAUAUCAUAUUAAUCUUU
[A] 7.44

[Q] // returns reported Kd for input Ib_S2_P4E.1_K4.1_C4.1_H4.1_A4.1_[T7A]_F4.1_[A9C]_T4.1 (ssRNA) RNA: UUUGAUUAAUAUGAUAUCGUUCUUUCUUGUAUAAUCUUCUUUCUCGAUAUCAUAUUAAUCUUU
[A] 12.3
